Sourced from patent EP3964497A1

Recorded Ki, one value per entry.
Target: δOR (Homo sapiens, UniProt P41143)
Construct: expressed in transfected cells; host or cells: HEK 293T cells, transient transfection, membrane preparation
Sequence (P41143 whole entry): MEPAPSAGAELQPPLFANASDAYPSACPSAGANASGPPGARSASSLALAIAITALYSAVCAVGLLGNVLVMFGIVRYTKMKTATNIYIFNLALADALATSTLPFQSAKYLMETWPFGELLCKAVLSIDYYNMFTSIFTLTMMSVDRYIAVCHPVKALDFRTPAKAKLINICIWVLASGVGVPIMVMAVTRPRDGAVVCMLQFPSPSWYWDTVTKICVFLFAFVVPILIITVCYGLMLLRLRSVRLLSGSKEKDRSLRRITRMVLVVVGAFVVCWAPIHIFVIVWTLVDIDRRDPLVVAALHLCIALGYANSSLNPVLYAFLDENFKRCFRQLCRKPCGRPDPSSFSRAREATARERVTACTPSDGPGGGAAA
Assay: competitive radioligand binding with [3H]diprenorphine, membranes of transfected HEK 293T cells
PARAMETER MEASURED: Ki (nM)

* C/C(=C\c1ccccc1)C(=O)NC[C@H](Cc1ccc(O)cc1)N(C)C [Example 4] | 49
* CN(C)[C@H](CNC(=O)/C=C/c1cccc2ccccc12)Cc1ccc(C(N)=O)cc1 [Example 18] | 130
* CN(C)[C@H](COC(=O)C=Cc1ccccc1)Cc1ccc(O)cc1 (stereo in doubt) [Comparative Example 2, reference compound] | 860
* NC(=O)c1ccc(C[C@H](N)CNC(=O)/C=C/c2cccc(C(F)(F)F)c2)cc1 [Example 14] | 2900
* CN[C@H](CNC(=O)/C=C/c1cccc(C(F)(F)F)c1)Cc1c(C)cc(O)cc1C [Example 12] | 310
* CN(C)[C@H](CNC(=O)/C=C/c1ccsc1)Cc1ccc(O)cc1 [Example 19] | 59
* CN(C)[C@](C)(CNC(=O)C=Cc1ccccc1)Cc1ccc(O)cc1 (stereo in doubt) [Example 5] | 1300
* Cc1cc(O)cc(C)c1C[C@H](N)CNC(=O)/C=C/c1cccc(C(F)(F)F)c1 [Example 11] | 360
